Parameter: GI50. Scope: all listed entries.
system: OVCAR-3; test: NCI tumour cell line growth inhibition, 48 h
The source made the active and inactive calls. No stated cut-off is given here; in the data, active = GI50 up to about 1.1 µM and inactive = higher.

Field: example entries. Status: answers known.
O=C(OC1C#CCSCC#C/C=C\1)c1ccc2c(c1)C(=O)c1ccccc1C2=O (stereo not given)	> 100 µM (inactive)
COc1ccc(/C=C(\C#N)c2nc(N)nc(N3N=C(C)CC3(C)C)n2)c(O)c1	15 µM (inactive)
CCOC(=O)[C@@H]1ON2O[C@@H](OC3CCCCC3c3ccccc3)C[C@H]3OC(=O)[C@@H]1C32 (stereo not given in full)	> 100 µM (inactive)
CCOc1cccc2nc3cccc(C(=O)NCCN(C)C)c3nc12	1.6 µM (inactive)
O=C(CNc1cccc(Cl)c1)Nn1c(-c2ccccc2)nc2ccccc2c1=O	7.1 µM (inactive)
NC(Cc1ccc(CP(=O)(O)O)cc1)C(=O)O (stereo not given)	> 100 µM (inactive)
CCN(CC)CCCNc1n[n+]([O-])c2ccccc2[n+]1[O-]	> 10 µM (inactive)
COC(=O)C(=O)C(C(=O)C(=O)Nc1ccc(C)c(C)c1)c1nc2ccc([N+](=O)[O-])cc2nc1O (stereo not given)	> 100 µM (inactive)
Cc1ccc(N(C)S(=O)(=O)c2ccccc2)cc1	> 100 µM (inactive)
COc1ccc2c(O)c1-c1c(OC)ccc(c1O)SSc1ccc(OC)c(c1O)-c1c(OC)ccc(c1O)SS2	20.6 µM (inactive)

For Cc1ccc([N+](=O)[O-])cc1NC(=O)C(=O)Cc1cc(=O)oc2cc(O)ccc12 , what is its reported GI50?
> 100 µM (inactive)

For O=C1CCCCC(=O)Nc2ccccc2N1 , what is its reported GI50?
> 100 µM (inactive)

For COc1ccc(/C=C2\CCC(CCN3CCOCC3)C2=O)cc1 (stereo not given) , what is its reported GI50?
> 100 µM (inactive)

Where do the numbers come from? From ChEMBL document CHEMBL1201862.
